Data credit: patent US20220144922A1

Measured Neut IC50 (ug/ml) subtype B values are reported for all entries that follow.
- STUDY TARGET: RSV F protein of subtype B strain 18537, on virus (respiratory syncytial virus subtype B …, UniProt P13843 26-574)
- Sequence (P13843 26-574): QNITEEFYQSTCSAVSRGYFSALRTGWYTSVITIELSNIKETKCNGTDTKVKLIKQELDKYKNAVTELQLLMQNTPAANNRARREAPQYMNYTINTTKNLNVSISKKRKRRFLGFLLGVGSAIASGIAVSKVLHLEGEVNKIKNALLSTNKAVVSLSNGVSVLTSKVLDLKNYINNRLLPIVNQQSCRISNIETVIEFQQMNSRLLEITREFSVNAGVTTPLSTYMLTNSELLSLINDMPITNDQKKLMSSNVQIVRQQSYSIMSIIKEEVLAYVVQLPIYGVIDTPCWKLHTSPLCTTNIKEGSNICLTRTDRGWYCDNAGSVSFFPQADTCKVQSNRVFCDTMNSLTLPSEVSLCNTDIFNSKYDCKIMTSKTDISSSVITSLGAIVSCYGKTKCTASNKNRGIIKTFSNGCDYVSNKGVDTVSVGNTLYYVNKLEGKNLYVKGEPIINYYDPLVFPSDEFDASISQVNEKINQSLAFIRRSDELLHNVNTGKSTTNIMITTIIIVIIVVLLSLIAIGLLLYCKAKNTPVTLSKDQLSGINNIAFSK
- ASSAY PROTOCOL: cell-based or functional assay

[[record]]
binder = "ADI-15626 (antibody, V domains shown, IgG) VH: EVQLVESGAEVKKPGSSVKVSCKASGGTFSSYEISWVRQAPGQGLEWMGGINPMFGAANYAQKFQDRVTIIADKSTGTVYMELSSLRSEDTALYYCARERYPSTDDYYRSGRYYGEWGQGTTVTVSS VL: ETTLTQSPSTLSASVGDRVTITCRASQSIRSWLAWYQQKPGKAPKLLIYRASTSDSGVPSRFSGSGSGTEFTLTISSLQPDDFAIYYCQQYNSIPVTFGQGTKLEIK"
result = "> 10 µg/mL"

[[record]]
binder = "ADI-15570 (antibody, V domains shown) VH: QVQLVESGGGVVQPGKSLRLSCAASGFTFSSYPMHWVRQAPGAGLEWMAVISYDGANKYYEDSLKGRFTISRDNSKDTLFLQMNNLRPEDTAVYYCARGRTSHINTPETKWGQGTLVTVSS VL: EIVLTQSPTLVSASTGDTVTISCRMSQGINGYLAWFQKKPGKAPDLLIYGASTLQDGVPSRFSGSGSGTDFTLTISRLQSEDLATYYCQQYYSLPWTFGQGTKVDIK"
result = "> 10 µg/mL"


Exercise: Give Neut IC50 (ug/ml) subtype B for the following binder: ADI-15593 (antibody, V domains shown, IgG; also called Antibody Number 160) VH: QVQLVQSGGGLVRPGGSLRLSCAASGFMFSTYSMNWLRTVPGKGLEWVSSISGSSSHIYYADSVKGRFTISRDNTKNSLYLQMNSLRPEDTALYYCARYFGDYSGLGNYYYYGMDVWGQGTTVTVSS VL: DIVMTQSPVSLPVTPGEPASISCRSSQSLLHSNGNNYLDWYLQRPGQSPQLLIYLGSNRASGVPDRFSGSGSGTDFTLRISRVEAEDVGVYYCMQALQTPRFGGGTKVEIK
Solution: > 10 µg/mL
